Just for reference, ChEMBL document CHEMBL1132364 is where these values come from.

Each entry below lists one item and its recorded IC50 value.
Molecular target: Glutamate NMDA receptor; Grin1/Grin2a (Rattus norvegicus, UniProt P35439+Q00959)
Sequence (Q00959 whole entry, other chains not shown): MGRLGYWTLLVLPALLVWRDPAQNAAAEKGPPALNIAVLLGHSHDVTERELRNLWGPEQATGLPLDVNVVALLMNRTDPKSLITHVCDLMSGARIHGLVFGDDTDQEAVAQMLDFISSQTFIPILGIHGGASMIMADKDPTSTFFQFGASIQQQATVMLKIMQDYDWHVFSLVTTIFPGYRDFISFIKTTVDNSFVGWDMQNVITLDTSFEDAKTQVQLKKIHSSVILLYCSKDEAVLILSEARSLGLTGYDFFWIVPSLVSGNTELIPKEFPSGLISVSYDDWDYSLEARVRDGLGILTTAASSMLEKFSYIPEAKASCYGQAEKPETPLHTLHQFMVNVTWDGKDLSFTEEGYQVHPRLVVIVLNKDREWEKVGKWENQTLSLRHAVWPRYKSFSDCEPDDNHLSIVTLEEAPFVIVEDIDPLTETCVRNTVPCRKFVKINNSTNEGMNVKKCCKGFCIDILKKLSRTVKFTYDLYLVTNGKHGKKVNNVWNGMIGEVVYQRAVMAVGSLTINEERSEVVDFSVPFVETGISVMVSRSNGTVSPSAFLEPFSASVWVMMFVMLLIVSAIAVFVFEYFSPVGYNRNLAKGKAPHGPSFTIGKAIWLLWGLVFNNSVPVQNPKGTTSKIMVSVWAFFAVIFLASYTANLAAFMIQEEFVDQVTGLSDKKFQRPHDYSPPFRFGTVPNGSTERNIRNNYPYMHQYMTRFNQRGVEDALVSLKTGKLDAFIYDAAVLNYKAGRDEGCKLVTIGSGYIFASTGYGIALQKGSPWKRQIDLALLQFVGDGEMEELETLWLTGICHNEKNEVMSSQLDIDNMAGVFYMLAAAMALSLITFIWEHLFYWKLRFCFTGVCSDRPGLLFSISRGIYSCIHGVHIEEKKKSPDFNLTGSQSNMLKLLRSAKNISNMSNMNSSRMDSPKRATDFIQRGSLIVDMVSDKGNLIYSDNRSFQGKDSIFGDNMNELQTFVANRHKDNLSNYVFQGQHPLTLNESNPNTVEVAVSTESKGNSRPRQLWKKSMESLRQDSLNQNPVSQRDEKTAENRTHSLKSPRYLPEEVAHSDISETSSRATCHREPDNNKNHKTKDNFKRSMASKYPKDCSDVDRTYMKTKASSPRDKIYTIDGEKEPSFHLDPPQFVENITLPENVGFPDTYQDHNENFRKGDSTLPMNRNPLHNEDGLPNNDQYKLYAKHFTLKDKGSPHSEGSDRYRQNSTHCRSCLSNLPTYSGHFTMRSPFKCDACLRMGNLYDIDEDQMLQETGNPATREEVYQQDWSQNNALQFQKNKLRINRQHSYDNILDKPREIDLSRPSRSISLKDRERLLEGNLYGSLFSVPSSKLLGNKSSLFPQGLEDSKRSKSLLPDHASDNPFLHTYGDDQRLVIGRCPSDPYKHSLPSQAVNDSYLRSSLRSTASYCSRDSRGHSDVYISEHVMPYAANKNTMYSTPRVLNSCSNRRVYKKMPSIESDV
Test: Antagonistic activity against N-methyl-D-aspartate glutamate receptor 1/2A.

Look over these answered cases.
* O=C(/C=C/c1ccc(Cl)cc1)NCCc1ccccc1O | > 100 µM
* N#C/C(=C\C(=O)NCCc1ccc(O)cc1)c1ccccc1 | > 100 µM
* N#C/C(=C\c1ccc(O)c(O)c1)C(=O)NCCCCc1ccccc1 | > 100 µM
* O=C(/C=C/c1ccc(O)cc1)N1CCC(Cc2ccccc2)CC1 | > 100 µM
* C[C@@H](CN1CCC(Cc2ccccc2)CC1)[C@@H](O)c1ccc(O)cc1 | 52 µM

## Task Give IC50; test system Glutamate NMDA receptor; Grin1/Grin2a (Rattus norvegicus, UniProt P35439+Q00959); compound N#C/C(=C\C(=O)NCCc1ccc(O)cc1)c1ccc(Cl)cc1
## Result > 100 µM
